# target.entity: human IDO1 (Homo sapiens)
# assay.name: Assessment of human IDO-1 inhibitory activity in HEK cells (human IDO1/HEK293 cells, kynurenine read-out with Ehrlich reagent, absorbance 490 nm)
# Format: cell-based
# Parameters: expressed in transfected cells
# protocol.conditions: HEK Human IDO-1 cellular assay
pIC50: −log10 of the molar value.
quantity.measured: pIC50

* CCCN(c1ccc([C@@H](COC)CC(=O)O)cc1Nc1ccc2c(c1)OC(F)(F)O2)C1CCOCC1 (single isomer, unassigned) | < 7.30
* CCC(CC(=O)O)c1cc(NC(=O)Nc2ccc3c(c2)OCO3)c(N(CC(C)C)C2CCCCC2)cc1F (single isomer, unassigned) [Example 1111] | > 8.30
* CCC(CC(=O)O)c1ccc(N(CC(C)C)C2CCCCC2)c(Nc2ccc(Cl)cc2)c1 (single isomer, unassigned) | > 8.30
* CCOc1ccc(NC(=O)Nc2cc([C@@H](COC)CC(=O)O)ccc2N(CC)C2CCOCC2)cc1 (single isomer, unassigned) | < 7.30
* CC(CC(=O)O)c1ccc(N(CC(C)(C)O)C2CCOCC2)c(Nc2ccc(Cl)cc2)c1 (single isomer, unassigned) | > 8.30

Now look at this one.
Q) pIC50 of CC[C@@H](CC(=O)O)c1ccc(N2CCOC[C@@H]2C(C)C)c(Nc2ccc(C#N)cc2)c1 (single isomer, unassigned) on human IDO1 (Homo sapiens)?
A) > 7.30

====

# target.entity: human IDO1 (Homo sapiens, UniProt P14902)
# Sequence (P14902 whole entry): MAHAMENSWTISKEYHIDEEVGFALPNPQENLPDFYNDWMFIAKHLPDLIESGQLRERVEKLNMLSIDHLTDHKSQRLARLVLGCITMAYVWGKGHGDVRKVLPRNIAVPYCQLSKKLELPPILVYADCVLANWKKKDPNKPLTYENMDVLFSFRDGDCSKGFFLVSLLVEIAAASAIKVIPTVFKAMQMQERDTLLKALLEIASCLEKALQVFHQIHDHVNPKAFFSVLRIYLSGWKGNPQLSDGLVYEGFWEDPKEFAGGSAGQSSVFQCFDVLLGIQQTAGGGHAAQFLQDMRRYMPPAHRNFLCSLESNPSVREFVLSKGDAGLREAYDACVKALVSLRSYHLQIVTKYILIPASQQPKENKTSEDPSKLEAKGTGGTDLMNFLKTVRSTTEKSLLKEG
# assay.name: Assessment of human IDO-1 inhibitory activity in HEK cells (human IDO1/HEK293 cells, kynurenine read-out with Ehrlich reagent, absorbance 490 nm)
# Type: cell-based
# Design: expressed in transfected cells
# protocol.conditions: HEK Human IDO-1 cellular assay
quantity.measured: IC50

Worked cases, answers included:
* CCOc1ccc(NC(=O)Nc2cc(C(COC)CC(=O)O)ccc2N(CC(C)C)C2CCOCC2)c(F)c1 (single isomer, unassigned) [Example 1215] | > 0.05 µM
* CCCN(c1ccc([C@@H](CC)CC(=O)O)cc1Nc1ccc(Cl)cc1)C1CCOCC1 (single isomer, unassigned) | < 0.005 µM
* CCC(CC(=O)O)c1cc(F)c(N(CC(C)C)CC(C)C)c(Nc2cnc(OC)nc2)c1 (single isomer, unassigned) | < 0.005 µM
* CCCN(c1ccc([C@@H](COC)CC(=O)O)cc1Nc1ccc2nc(C)sc2c1)C1CCOCC1 (single isomer, unassigned) | < 0.05 µM
* CC(C)CN(CC(C)C)c1ccc(C(CC(=O)O)CN(C)C)cc1NC(=O)Nc1ccc(Cl)cc1F (racemic) | > 0.05 µM
* CCOc1ccc(CC(=O)Nc2cc(C(CC(=O)O)C3CC3)ccc2N(CC(C)C)C2CCCCC2)cc1 (single isomer, unassigned) | < 0.005 µM

Now look at this one.
Q) For the compound CC[C@@H](CC(=O)O)c1ccc(N2CCOC[C@@H]2C(C)C)c(Nc2ccc(F)cc2)c1 (single isomer, unassigned) , what IC50 is on record?
A) < 0.05 µM

====

# target.entity: human IDO1 (Homo sapiens, UniProt P14902)
# assay.name: Assessment of human IDO-1 inhibitory activity in Hela cells (Interferon-gamma stimulated HeLa cells, Ehrlich reagent, absorbance 490 nm)
# Type: cell-based
# Design: endogenous in cells; host or cells: HeLa cells stimulated with interferon-gamma
# protocol.conditions: Hela Human IDO-1 cellular assay
pIC50: −log10 of the molar value.
The compounds listed here are annotated with their pIC50.

Worked cases, answers included:
• CCCN(c1ccc([C@@H](COC)CC(=O)O)cc1Nc1ccc(OC)nc1)C1CCOCC1 (single isomer, unassigned) = > 7.30
• COCC(CC(=O)O)c1ccc(N(CC(F)F)C2CCOCC2)c(Nc2ccc(Cl)cc2)c1 (single isomer, unassigned) [Example 321 Enantiomer 1] = > 8.30

Now look at this one.
Q) For the compound CCN(c1ccc([C@@H](CC(=O)O)C(F)(F)F)cc1NC(=O)Nc1ccc(Cl)cc1F)C1CCOCC1 (single isomer, unassigned) , what pIC50 is on record?
A) > 7.30

====

The compounds listed here are annotated with their IC50.
# target.entity: human IDO1 (Homo sapiens, UniProt P14902)
# assay.name: Assessment of human IDO-1 inhibitory activity in HEK cells (human IDO1/HEK293 cells, kynurenine read-out with Ehrlich reagent, absorbance 490 nm)
# Type: cell-based
# Design: expressed in transfected cells
# protocol.conditions: HEK Human IDO-1 cellular assay

* CC[C@H](CC(=O)O)c1ccc(N2CCOC[C@@H]2C(C)C)c(NC(=O)Nc2cc(C)on2)c1 (single isomer, unassigned) | > 50 nM
* CCOc1ccc(Nc2cc([C@H](CC)CC(=O)O)ccc2N2CCC[C@H]2C(C)(C)O)cc1 (single isomer, unassigned) | > 50 nM

Now look at this one.
Q) For the compound CC[C@H](CC(=O)O)c1ccc(N(CC)C2CCCCC2)c(Nc2ccc(C#N)cc2)c1 (single isomer, unassigned) , what IC50 is on record?
A) < 5 nM

====

# target.entity: human IDO1 (Homo sapiens, UniProt P14902)
# assay.name: Assessment of human IDO-1 inhibitory activity in HEK cells (human IDO1/HEK293 cells, kynurenine read-out with Ehrlich reagent, absorbance 490 nm)
# Type: cell-based
# Set-up: expressed in transfected cells
# protocol.conditions: HEK Human IDO-1 cellular assay
The compounds listed here are annotated with their IC50.

- CCC(CC(=O)O)c1ccc(N2CCOC[C@H]2C(C)C)c(Nc2ccc3c(c2)OC(F)(F)O3)c1 (single isomer, unassigned) [Example 893]: > 50 nM
- CCCN(c1ccc([C@@H](CC)CC(=O)O)cc1Nc1ccc(F)cc1)C1CCOCC1 (single isomer, unassigned): < 5 nM
- CCOc1ccc(CC(=O)Nc2cc(C(COC)CC(=O)O)cc(F)c2N(CC(C)C)C2CCCCC2)cc1 (single isomer, unassigned): < 50 nM
- CCC(CC(=O)O)c1ccc(N2CCOC[C@H]2C(C)C)c(Nc2ccc(Cl)cc2)c1 (single isomer, unassigned): < 5 nM
- CCN(c1ccc(C(C)(C)CC(=O)O)cc1Nc1ccc(F)cc1)C1CCC(C)(O)CC1 (stereo not drawn): < 5 nM

Now look at this one.
Q) For the compound CCC(CC(=O)O)c1ccc(N(CC(C)C)C2CCCCC2)c(NC(=O)Cc2cc(F)ccc2F)c1 (racemic) [Example 1087] , what IC50 is on record?
A) < 5 nM

====

The compounds listed here are annotated with their IC50.
# target.entity: human IDO1 (Homo sapiens, UniProt P14902)
# assay.name: Assessment of human IDO-1 inhibitory activity in HEK cells (human IDO1/HEK293 cells, kynurenine read-out with Ehrlich reagent, absorbance 490 nm)
# Type: cell-based
# Parameters: expressed in transfected cells
# protocol.conditions: HEK Human IDO-1 cellular assay

• CCOc1ncc(Nc2cc([C@@H](CC)CC(=O)O)ccc2N(CC2CC2)CC(C)(C)O)cn1 (single isomer, unassigned) = > 50 nM
• CC[C@@H](CC(=O)O)c1ccc(N2CCOC[C@@H]2C(C)C)c(Nc2ccc3c(c2)OC(F)(F)O3)c1 (single isomer, unassigned) = < 50 nM
• CCc1cnc(Nc2cc([C@@H](CC)CC(=O)O)ccc2N(CC)C2CCOCC2)nc1 (single isomer, unassigned) = < 50 nM
• CC[C@@H](CC(=O)O)c1ccc(N(CC)C2CCOCC2)c(Nc2ccc3nc(C)sc3c2)c1 (single isomer, unassigned) = < 5 nM
• CC[C@H](CC(=O)O)c1ccc(N2CCC[C@H]2C(C)(C)F)c(NC(=O)Nc2ccc(Cl)cc2F)c1 (single isomer, unassigned) = < 50 nM

Q) For the compound CCC(CC(=O)O)c1ccc(N(CC(C)C)C(C)C)c(Nc2ccc(Cl)cc2)c1 (single isomer, unassigned) , what IC50 is on record?
A) < 5 nM

====

The compounds listed here are annotated with their IC50.
# target.entity: UniProtKB P14902
# assay.name: Assessment of human IDO-1 inhibitory activity in HEK cells (human IDO1/HEK293 cells, kynurenine read-out with Ehrlich reagent, absorbance 490 nm)
# Type: cell-based
# Parameters: expressed in transfected cells
# protocol.conditions: HEK Human IDO-1 cellular assay

Worked cases, answers included:
* CCC(CC(=O)O)c1ccc(N(CC(C)C)C(C)C)c(Nc2ccc3nc(C)sc3c2)c1 (single isomer, unassigned) | > 50 nM
* CCOc1ccc(Nc2cc(C(C)CC(=O)O)ccc2N(CC(C)(C)O)C2CCCCC2)c(F)c1 (single isomer, unassigned) [Example 52] | > 50 nM
* CCC(CC(=O)O)c1ccc(N2CCC[C@H]2C(C)(C)O)c(NC(=O)Nc2ccc(F)cc2)c1 (single isomer, unassigned) | > 50 nM
* COCC(CC(=O)OC)c1ccc(N(CC(C)C)C2CCC(OC)CC2)c(NC(=O)Nc2ccc(C)cc2)c1 (racemic) | > 50 nM
* CCOc1ccc(NC(=O)Nc2cc(C(CC)CC(=O)O)c(F)cc2N(CC(C)C)C2CCCCC2)cc1 (single isomer, unassigned) [Example 1108] | < 5 nM
* CC[C@@H](CC(=O)O)c1ccc(N(CC)C2CCOCC2)c(NC(=O)Nc2cc(C)on2)c1 (single isomer, unassigned) | > 50 nM
* CCC(CC(=O)O)c1ccc(N(CC(C)C)CC(C)C)c(NC(=O)Cc2ccc(C)cc2)c1 (single isomer, unassigned) [Example 1103 E1] | < 5 nM
* CC[C@H](CC(=O)O)c1ccc(N(CC(C)C)C2CCS(=O)(=O)CC2)c(Nc2ccc3c(c2)OC(F)(F)O3)c1 (single isomer, unassigned) | < 5 nM

Q) For the compound CCC(CC(=O)O)c1ccc(N2CCC[C@H]2C(C)(C)O)c(NC(=O)Nc2ccc(OC)cc2F)c1 (single isomer, unassigned) , what IC50 is on record?
A) > 50 nM
